system: MS2 coat protein; assay: apparent KD of MS2 coat protein; higher = weaker reporter binding; settings: Eterna round: R107; input ligand: tryptophan 2.4 mM
The threshold is inclusive: apparent KD of MS2 coat protein of exactly 0.02 µM counts as t; values below receive f.

Problem: Item ACAUGUUGGUGGUACCAACGAAGGCGGAAACGAGGACCGGUACGGCCGCCACUCGGCGACAUGAGGAUCACCCAUGUGGUUAAAA [Exclusion - Tryptophan A (Freestyle 3)] with apparent KD of MS2 coat protein of 0.02 µM or above?
Result: t

Problem: Please tell me: is the sequence AGAGUUAGACAAAAGUCUAGCUCACCAGAAGGAGCGUCCGAAAGGACAGGUAGGUCGCUGGUACGUGAGGAUCACCCACGUUCCU [ArgAS 18 #OpenEnded #AlternativeMS2] at or over 0.02 µM in terms of apparent KD of MS2 coat protein?
Result: t

Problem: Does the reported apparent KD of MS2 coat protein for AUCGCACCUGGUGAUACCAGCGUUUGCUCGCGACAUGAGGAUCACCCAUGUGGCCAGUGAUGCCCUUGGCAGCAUGGGCGGUGCA [Same State - Theophylline B (Freestyle 28)] fall at or above the 0.02 µM mark?
Result: t

Problem: # check: apparent KD of MS2 coat protein of UCGUGUGUUUCGGAUACCAGUGAAAUCGAUACAUGAGGAUCACCCAUGUGAGAGGAUGUACACCCUUGGCAGCUGUCUGUAUCUG [asczmullin] is greater than or equal to 0.02 µM
Result: f

Problem: Could you tell me if the measured apparent KD of MS2 coat protein of AGGACGGUCGGAAGGAGCGGUACAUGAGGAUCACCCAUGUACUUCUGGGCAUCCGUAGAGUGCCAGGUAGGUCGCCGAUUGCGGG [XArg-B10] reaches 0.02 µM or more?
Result: f

Problem: Quick check: does UUAUGAUGUUCCGAUACCAGCCAUGUGGUUCUAACUUAACAUGAGGAUCACCCAUGUACCGGCCCUUGGCAGCGGAUGUGGAUUA [Flamini] have apparent KD of MS2 coat protein greater than or equal to 0.02 µM?
Result: f

---

test system: K4 kissing-loop RNA reporter; experiment: apparent KD of K4 kissing-loop reporter; higher = weaker reporter binding; conditions: Eterna round: R107; input ligand: theophylline 20 uM;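 further: bound reporter read as fluorescence of individual clusters on recovered sequencing chips by microscopy, with normalized cluster intensities fitted with a binding model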
quantity: apparent KD of K4 kissing-loop reporter (nM)
Hi! Could you send only the number? It should be in nM, unit omitted.

Problem: Give the reported value of apparent KD of K4 kissing-loop reporter for this record: AAGCGUAAAAUGGCGGACAUACUGCUCCCACGAGGACCGGUACGGCCGCCACUCGAGUGCGGCAGUGAUGUUGCCGCCUUAGCGU [KL-XTryp-A20]
Result: 80.3

Problem: Please indicate apparent KD of K4 kissing-loop reporter recorded for AAUUCUUAUCUUAGUUGAUUUCUAAUUAAACGAGGACCGGUACGGCCGCCACUCGGUUAUGAGUGAUGUUCAUGGAAUUACAUAA [JR_SSTryptoA_Sub019]
Result: 791

Problem: Name the recorded apparent KD of K4 kissing-loop reporter of the item CAUCUGGACCAAGGAUAUGUGGGCAUAAUAAAAUUACCACCUUAUUUGCAGUAAGUGAUGUUUAACACAGAAGGUGGACAUAGAC [theeternabot_exclusion_KL_FMN_B_10] in your answer.
Result: 701

Problem: // Input: GCUACCUAGGCAGGAUAUAGACAUUGAGUGAUGUUCGAUGAUUAUCCAUAUUCCCGUCACAUAUGACUAGAAGGGCCUAGGUAGC . Output its apparent KD of K4 kissing-loop reporter only.
Result: 228

Problem: # return recorded apparent KD of K4 kissing-loop reporter for input AGCCGAAAGGCGAGUGCUGUCACUCCGGAAGGAGCGCUCAAAAGAGCAGGUAGGUCGCCGGAGUGAUGUUCCGGUGCAGCACUCA [Omei KL Arginine A Exc B v4]
Result: 751

Problem: # return recorded apparent KD of K4 kissing-loop reporter for entry UGUGAACAAAAGUAGAGUGGACCACUAUAGCGAGGACCGGUACGGCCGCCACUCGUACAUGAAUUCAGUGAUGUUGAAAUGAGCU [whbob_EX_Tryp_A_t14]
Result: 426

Problem: Using the record for GUGCGGUGGAGGCUACCGCUACUCUGAGAAGGAGCGCAGAUGACUGCAGGUAGGUCGCUUAGAGCUUGCAGUGAUGUUGCAAGUU [Teorzaqu] , state its measured apparent KD of K4 kissing-loop reporter.
Result: 132

Problem: Provide one value: measured apparent KD of K4 kissing-loop reporter of GGACGCCGGUCGGCCGCCACUCACAGCAGUGAUGUUCCUGAGAAUGUAGCGGAGUGAUGUUCCGAGAGGACCGGGACUGCAGUUU [Same State Tryptophan B GF 8]
Result: 875

Problem: Report apparent KD of K4 kissing-loop reporter, nothing else, for this sequence: UGAUCUGCAGUGAUGUUGCAGUAGCUGUCAGAGGAUAUCAGACUCAUGAGAAGGCUGACAAUGUCUAACAGCACAAUGCUGUUCA [FMN A SS t6]
Result: 197

Problem: Look up apparent KD of K4 kissing-loop reporter of GCAUCCUAGUCGGCCGCCACUGACAUGAGUGAUGUUCAUGUUCGUCAGUGAUGUUGACGUUGUUACAGGACCGGGACUAGGAUGC [KL-SSTryp-B8 Brourdwalk4 #Double KL] and report it.
Result: 150

Problem: Given the sequence CAUGAGUGAUGUUCGUGCGCUUGGUCGAAGCGAGGACCGGUACGGCCGCCACUCGCUAUGGCGGCAUCUACCAGUGAUGUUGGUG [Same State Tryptophan A GF 2] , write its reported apparent KD of K4 kissing-loop reporter.
Result: 202

Problem: # return recorded apparent KD of K4 kissing-loop reporter for input AUUUAGACGAGUGAUGUUCGUGAUAUUACAGAGGAUAUGCUUAAAAGCAGAAGGCUGUAUUUAUAUUUGUUAUGUAAUUUUAAAA [JR_ExcFMNA_Sub005]
Result: 95.5

Problem: Please look at this sequence and report its apparent KD of K4 kissing-loop reporter: UGAUACCAGGCGGCCGCCACUCCUGCAGGUCAAAGACCUGUGAAGCUGGUUCUCCAGUGAUGUUGGAGGACCGGGCCUGGUAUCU [FiskerMod 27 - Jieux - Exclusion - Tryptophan B]
Result: 179

Problem: Give reported apparent KD of K4 kissing-loop reporter value for UGUGCCAAAUGUGAUACCAGCAUCCUGCAGUGAUGUUGCAUACGAGUGAUGUUCGUCCGAUGCCCUUGGCAGCGCAGUAGUUUGA [Same State Theophylline B GF 26]
Result: 326

Problem: Answer with reported apparent KD of K4 kissing-loop reporter of UGAUACCAGACGGCCGCCACUCCCGCAGGUCAAAGACCUGCGAAGAAGGUUUUUUAGUGAUGUUGGAGGACCGGGUCUGGUAUCU [FiskerMod 20 - Jieux - Exclusion - Tryptophan B]
Result: 140

Problem: Quote apparent KD of K4 kissing-loop reporter reported for CGCAGUGAUGUUGCUAUUAUUCUUGAUUAACGAGGACCGGUACGGCCGCCACUCGAUUUCUAUCUAAUCCAGUGUUUUGUUGAGU [JR_ExcTryptoA_Sub002] please.
Result: 455

Problem: Determine its reported apparent KD of K4 kissing-loop reporter: GUCUGUGUACUAGGAUAUGGUUGCAGGCAGUCAGGUCGCCUUUUCGGCGGCCAGUGAUGUUGGUGGCCAGAAGGAGUACGUGAUG [Raorin]
Result: 720

Problem: Supply measured apparent KD of K4 kissing-loop reporter of AUUUAAUGUAUAGAUUAUAUACAUUAUUCAGAGGAUAUGCUUUGAAGCAGAAGGCUGGAUGUAGUGAUGUUGCAAUUUUAAUUUA [JR_SSFMNA_Sub006] in your reply.
Result: 250

Problem: Please give measured apparent KD of K4 kissing-loop reporter of the following entry: UCGAAGGAUGGAAGGAGCGCUCGUCAGUCCUGCGAGUGAUGUUCGUGGGUAAAUAUUCGCGAGCAGGUAGGUCGCCAUCUCGAAC [Erbemaa]
Result: 122

Problem: Complete the entry with apparent KD of K4 kissing-loop reporter for AAUUUAUUAUCUGAUACCAGACUUUAUCUUGUUUAUAAGUCAAGUGAUGUUUGACUAUUAGUCCCUUGGCAGCAGUAUUUUUUAA [JR_Nu_SSTheophyB_Sub025]
Result: 187

Problem: Return reported apparent KD of K4 kissing-loop reporter. Input sequence: AGAAGAGUGAUGUUCUUCUAUAUCUCAGAAGGAGCGACAUAAAUGUCAGGUAGGUCGCUGAGAUGAAAUCUCACACAGAUCUUGG [Arg A SS t8]
Result: 182

Problem: Identify the reported apparent KD of K4 kissing-loop reporter for the following entry. GAGGUGCUGAUGCGGUGGCCGGUGGUCGUGCGAGGACCGGUACGGCCGCCACUCGCAUGAGUGAUGUUCAUGUGUCGUCGUCGUC [whbob_EX_Tryp_A_t3]
Result: 117

Problem: Please report the measured apparent KD of K4 kissing-loop reporter for GGCAGUGAUGUUGCCAGUGGCAGAUGUGAAGGAGCGCGGUGAGACGCAGGUAGGUCGCACAUUGAAAUUGCUGUCACUAAAAUGC [#02 K4 Arginine A Exclusion]
Result: 314
